Test system: Enterobacterales
Assay: MIC, broth microdilution, CDC/FDA Antibiotic Resistance Isolate Bank (Example 7, Tables 8, 11, 12)
Assay type: cell-based
Settings: Klebsiella aerogenes, Enterobacter aerogenes, KUB No. 5777, AR Bank # 431; read-out: MIC
QUANTITY: MIC (mg/L)
The reply should contain only the number, in mg/L.

- CHEMICAL STRING: "CC(C)(O/N=C(\\C(=O)N[C@@H]1C(=O)N2C(C(=O)[O-])=C(C[N+]3(CCNC(=O)c4ccc(O)c(O)c4Cl)CCCC3)CS[C@H]12)c1csc(N)n1)C(=O)O"
  SYSTEM: "Enterobacterales"
  QUANTITY: "MIC"
  ASSAY VALUE: 1
- CHEMICAL STRING: "CO/N=C(\\C(=O)N[C@@H]1C(=O)N2C(C(=O)[O-])=C(C[n+]3ccn4ncccc43)CS[C@H]12)c1nsc(N)n1"
  SYSTEM: "Enterobacterales"
  QUANTITY: "MIC"
  ASSAY VALUE: 4
- CHEMICAL STRING: "C[C@H]1[C@H](NC(=O)/C(=N\\OC(C)(C)C(=O)O)c2csc(N)n2)C(=O)N1S(=O)(=O)O"
  SYSTEM: "Enterobacterales"
  QUANTITY: "MIC"
  ASSAY VALUE: 16
- CHEMICAL STRING: "CN(C)c1cc(NC(=O)CNC(C)(C)C)c(O)c2c1C[C@H]1C[C@H]3[C@H](N(C)C)C(O)=C(C(N)=O)C(=O)[C@@]3(O)C(O)=C1C2=O"
  SYSTEM: "Enterobacterales"
  QUANTITY: "MIC"
  ASSAY VALUE: 1

**Query** I would be grateful if you could share the reported MIC for `C[C@H]1COc2c(N3CCN(C)CC3)c(F)cc3c(=O)c(C(=O)O)cn1c23` .
**Result** 1

**Query** I would be grateful if you could share the reported MIC for `NCC[C@H](O)C(=O)N[C@@H]1C[C@H](N)[C@@H](O[C@H]2O[C@H](CN)[C@@H](O)[C@H](O)[C@H]2O)[C@H](O)[C@H]1O[C@H]1O[C@H](CO)[C@@H](O)[C@H](N)[C@H]1O` .
**Result** 0.5

**Query** I would be grateful if you could share the reported MIC for `O=C(O)c1cn(C2CC2)c2cc(N3CCNCC3)c(F)cc2c1=O` .
**Result** 1
